src = patent US20240189309A1

Listing of entries alongside the reported IC50.
molecular target: TYK2 Pseudokinase (JH2) (Homo sapiens, UniProt P29597); assay: HEK-Blue IFNα/β reporter assay (SEAP) for profiling TYK2 pseudokinase (JH2) inhibition; type: cell-based; conditions: HEK-Blue IFNα/β cells, 1 ng/mL human recombinant IFNα, read-out: IFNα (TYK2 inhibitory activity, IC50)
Sequence (P29597 whole entry): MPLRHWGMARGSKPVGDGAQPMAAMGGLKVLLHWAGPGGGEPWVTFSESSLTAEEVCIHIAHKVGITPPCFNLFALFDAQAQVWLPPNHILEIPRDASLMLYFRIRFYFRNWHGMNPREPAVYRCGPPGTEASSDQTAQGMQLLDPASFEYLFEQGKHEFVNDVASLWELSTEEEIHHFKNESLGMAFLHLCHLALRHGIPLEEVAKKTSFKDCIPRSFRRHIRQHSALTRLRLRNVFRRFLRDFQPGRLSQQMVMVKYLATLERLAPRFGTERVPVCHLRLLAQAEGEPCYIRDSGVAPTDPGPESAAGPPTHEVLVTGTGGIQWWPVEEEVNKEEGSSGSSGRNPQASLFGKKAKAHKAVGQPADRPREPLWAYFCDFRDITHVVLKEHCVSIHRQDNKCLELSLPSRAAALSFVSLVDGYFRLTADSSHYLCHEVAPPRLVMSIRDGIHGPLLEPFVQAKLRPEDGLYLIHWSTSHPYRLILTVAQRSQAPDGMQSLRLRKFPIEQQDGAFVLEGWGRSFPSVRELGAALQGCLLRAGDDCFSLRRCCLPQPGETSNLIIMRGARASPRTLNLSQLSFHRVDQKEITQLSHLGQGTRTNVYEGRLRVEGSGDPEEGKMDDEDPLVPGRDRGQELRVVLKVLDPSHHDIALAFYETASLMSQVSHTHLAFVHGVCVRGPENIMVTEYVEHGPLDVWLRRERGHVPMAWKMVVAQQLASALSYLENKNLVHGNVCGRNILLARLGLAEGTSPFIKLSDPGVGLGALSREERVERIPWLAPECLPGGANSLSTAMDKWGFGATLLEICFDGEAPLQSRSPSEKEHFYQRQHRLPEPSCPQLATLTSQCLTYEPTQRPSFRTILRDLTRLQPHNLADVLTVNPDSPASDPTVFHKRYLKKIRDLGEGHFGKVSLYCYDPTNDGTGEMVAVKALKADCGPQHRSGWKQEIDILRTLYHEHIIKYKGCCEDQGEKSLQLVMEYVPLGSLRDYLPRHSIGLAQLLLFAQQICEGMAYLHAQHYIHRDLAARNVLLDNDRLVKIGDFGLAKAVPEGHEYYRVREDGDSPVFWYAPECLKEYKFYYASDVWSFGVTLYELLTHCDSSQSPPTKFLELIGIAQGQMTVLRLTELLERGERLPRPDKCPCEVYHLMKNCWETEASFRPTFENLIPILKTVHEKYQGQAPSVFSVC

Consider the reported IC50 for these molecules:
INSERT INTO assay_data (molecule, property_label, recorded_value) VALUES
  ('[2H]C([2H])([2H])NC(=O)c1cnc(NC(=O)C2CC2)cc1Nc1cncc2c1N(C)Cc1nn(C)c(=O)n1-2', 'IC50', '> 1000 nM'),
  ('[2H]C([2H])([2H])NC(=O)c1nnc(NC(=O)C2COC2)cc1Nc1cccc2c1N(C)Cc1nn(C)c(=O)n1-2', 'IC50', '300 to 1000 nM'),
  ('[2H]C([2H])([2H])NC(=O)c1nnc(NC(=O)C2CC2)cc1Nc1cccc2c1N(C)C[C@@H]1CCC(=O)N21', 'IC50', '300 to 1000 nM'),
  ('CNC(=O)c1nnc(Nc2ccc(F)cn2)cc1Nc1cccc2c1OCc1nn(C)c(=O)n1-2', 'IC50', '> 1000 nM'),
  ('[2H]C([2H])([2H])NC(=O)c1cnc(NC(=O)C2CC2)cc1Nc1cccc2c1N(C)Cc1nnnn1-2', 'IC50', '30 to 300 nM'),
  ('[2H]C([2H])([2H])NC(=O)c1cnc(Nc2ccc(F)cn2)cc1Nc1cccc2c1N(C)Cc1nn(C)c(=O)n1-2', 'IC50', '< 30 nM');

Hello, please tell me recorded IC50 for this one: "CNC(=O)c1nnc(Nc2ccc(F)cn2)cc1Nc1cccc2c1OCc1c-2noc1C"
> 1000 nM

Hello, please tell me recorded IC50 for this one: "CNC(=O)c1nnc(Nc2ccc(F)cn2)cc1Nc1cccc2c1OCc1conc1-2"
> 1000 nM

Hello, please tell me recorded IC50 for this one: [2H]C([2H])([2H])NC(=O)c1nnc(NC(=O)C2CC2)cc1Nc1cccc2c1N(C)CC1CCC(=O)N21 (centres unmarked)
30 to 300 nM

Hello, please tell me recorded IC50 for this one: "[2H]C([2H])([2H])NC(=O)c1cnc(NC(=O)C2CC2)cc1Nc1cccc2c1N(C)Cc1nc(C)oc1-2"
30 to 300 nM

Hello, please tell me recorded IC50 for this one: "CNC(=O)c1cnc(Nc2ccc(F)cn2)cc1Nc1cccc2c1OCCn1nnnc1-2"
300 to 1000 nM

----------
biological target: TYK2 Pseudokinase (JH2) (Homo sapiens, UniProt P29597); test: HEK-Blue IL-23 reporter assay (SEAP) for profiling TYK2 pseudokinase (JH2) inhibition; type: cell-based; set-up: HEK-Blue™ IL-23 and IFNα/β cells with a stably-integrated cytokine receptor and STAT3 or STAT1; endogenous in cells; host or cells: HEK-Blue IL-23 and HEK-Blue IFNα/β cells; settings: HEK-Blue IL-23 cells, 10 ng/mL human recombinant IL-23, SEAP reporter; read-out: IL23 (TYK2 inhibitory activity, IC50)
Listing of entries alongside the reported IC50.

Consider the reported IC50 for these molecules:
INSERT INTO results (compound_structure_string, tested_system, recorded_value) VALUES
  ('[2H]C([2H])([2H])NC(=O)c1nnc(NC(=O)C2CC2)cc1Nc1cccc2c1N(C)Cc1sc(C)nc1-2', 'TYK2 Pseudokinase (JH2) (Homo sapiens, UniProt P29597)', '< 30 nM'),
  ('CNC(=O)c1nnc(NC(=O)C2CC2)cc1Nc1cccc2c1OCc1nn(C)c(=O)n1-2', 'TYK2 Pseudokinase (JH2) (Homo sapiens, UniProt P29597)', '300 to 1000 nM'),
  ('[2H]C([2H])([2H])NC(=O)c1nnc(NC(=O)C2CC2)cc1Nc1cccc2c1N(C)Cc1nc(C)oc1-2', 'TYK2 Pseudokinase (JH2) (Homo sapiens, UniProt P29597)', '< 30 nM'),
  ('[2H]C([2H])([2H])NC(=O)c1cnc(Nc2ccc(F)cn2)cc1Nc1cccc2c1N(C)Cc1nn(C)c(=O)n1-2', 'TYK2 Pseudokinase (JH2) (Homo sapiens, UniProt P29597)', '< 30 nM');

For TYK2 Pseudokinase (JH2) (Homo sapiens, UniProt P29597), give the measured IC50 of the entry "CNC(=O)c1nnc(Nc2ccc(F)cn2)cc1Nc1cccc2c1OCc1conc1-2"
< 30 nM

For TYK2 Pseudokinase (JH2) (Homo sapiens, UniProt P29597), give the measured IC50 of the entry "[2H]C([2H])([2H])NC(=O)c1nnc(NC(=O)C2CC2)cc1Nc1cccc2c1N(C)C[C@@H]1CCC(=O)N21"
30 to 300 nM

For TYK2 Pseudokinase (JH2) (Homo sapiens, UniProt P29597), give the measured IC50 of the entry "[2H]C([2H])([2H])NC(=O)c1cnc(NC(=O)C2CC2)cc1Nc1cc(F)cc2c1N(C)Cc1nn(C)c(=O)n1-2"
< 30 nM

----------
Target: TYK2 Pseudokinase (JH2) (Homo sapiens, UniProt P29597)
Experiment: HEK-Blue IL-23 reporter assay (SEAP) for profiling TYK2 pseudokinase (JH2) inhibition
Assay type: cell-based
Set-up: HEK-Blue™ IL-23 and IFNα/β cells with a stably-integrated cytokine receptor and STAT3 or STAT1; endogenous in cells; host or cells: HEK-Blue IL-23 and HEK-Blue IFNα/β cells
Conditions: HEK-Blue IL-23 cells, 10 ng/mL human recombinant IL-23, SEAP reporter; read-out: IL23 (TYK2 inhibitory activity, IC50)
Procedure: Example B-1: HEK-Blue™ IL-23 and IFNα/β Reporter Assays for Profiling TYK2 Pseudokinase (JH2) Inhibition HEK-Blue™ IL-23 and IFNα/β cells with a stably-integrated cytokine receptor and STAT3 or STAT1 express STAT-inducible secreted embryonic alkaline phosphatase (SEAP) reporter gene upon cytokine stimulation. […] SEAP induction is measured using the QUANTI Blue™ Solution (InvivoGen) according to the manufacturer's instructions.
pIC50: −log10 of the molar value.
property label: pIC50

Consider the reported pIC50 for these compounds:
INSERT INTO results (compound_structure_string, property_label, recorded_value) VALUES
  ('CNC(=O)c1nnc(Nc2ccc(F)cn2)cc1Nc1cccc2c1OCc1nnnn1-2', 'pIC50', '6.00 to 6.52'),
  ('[2H]C([2H])([2H])NC(=O)c1cnc(NC(=O)C2CC2)cc1Nc1cccc2c1N(C)Cc1nnnn1-2', 'pIC50', '> 7.52'),
  ('[2H]C([2H])([2H])NC(=O)c1nnc(NC(=O)C2COC2)cc1Nc1cccc2c1N(C)Cc1nn(C)c(=O)n1-2', 'pIC50', '< 6.00'),
  ('[2H]C([2H])([2H])NC(=O)c1nnc(NC(=O)C2CC2)cc1Nc1cccc2c1N(C)C[C@H]1CCC(=O)N21', 'pIC50', '> 7.52'),
  ('[2H]C([2H])([2H])NC(=O)c1cnc(NC(=O)C2CC2)cc1Nc1nccc2c1N(C)Cc1nn(C)c(=O)n1-2', 'pIC50', '> 7.52'),
  ('CNC(=O)c1nnc(Nc2ccc(F)cn2)cc1Nc1cccc2c1OCc1nn(C)c(=O)n1-2', 'pIC50', '< 6.00');

Please examine the following record next.
Hello, please tell me recorded pIC50 for this one: "[2H]C([2H])([2H])NC(=O)c1cnc(NC(=O)C2CC2)cc1Nc1cncc2c1N(C)Cc1nn(C)c(=O)n1-2"
< 6.00

----------
biological target: TYK2 Pseudokinase (JH2) (Homo sapiens, UniProt P29597); assay: HEK-Blue IL-23 reporter assay (SEAP) for profiling TYK2 pseudokinase (JH2) inhibition; format: cell-based; parameters: HEK-Blue™ IL-23 and IFNα/β cells with a stably-integrated cytokine receptor and STAT3 or STAT1; endogenous in cells; host or cells: HEK-Blue IL-23 and HEK-Blue IFNα/β cells; conditions: HEK-Blue IL-23 cells, 10 ng/mL human recombinant IL-23, SEAP reporter; read-out: IL23 (TYK2 inhibitory activity, IC50)
Listing of entries alongside the reported IC50.

Consider the reported IC50 for these molecules:
INSERT INTO results (molecule, tested_system, property_label, recorded_value) VALUES
  ('[2H]C([2H])([2H])NC(=O)c1cnc(Nc2ccc(F)cn2)cc1Nc1cccc2c1N(C)Cc1nnnn1-2', 'TYK2 Pseudokinase (JH2) (Homo sapiens, UniProt P29597)', 'IC50', '< 30 nM'),
  ('[2H]C([2H])([2H])NC(=O)c1cnc(Nc2cc(C)nc(C)n2)cc1Nc1cccc2c1N(C)Cc1nn(C)c(=O)n1-2', 'TYK2 Pseudokinase (JH2) (Homo sapiens, UniProt P29597)', 'IC50', '< 30 nM'),
  ('CNC(=O)c1nnc(NC(=O)C2CC2)cc1Nc1cccc2c1OCc1c-2noc1C', 'TYK2 Pseudokinase (JH2) (Homo sapiens, UniProt P29597)', 'IC50', '30 to 300 nM'),
  ('[2H]C([2H])([2H])NC(=O)c1nnc(NC(=O)C2CC2)cc1Nc1cc(F)cc2c1N(C)Cc1nn(C)c(=O)n1-2', 'TYK2 Pseudokinase (JH2) (Homo sapiens, UniProt P29597)', 'IC50', '< 30 nM'),
  ('[2H]C([2H])([2H])NC(=O)c1nnc(NC(=O)C2CC2)cc1Nc1cccc2c1N(C)CC1CCC(=O)N21 (stereo not drawn)', 'TYK2 Pseudokinase (JH2) (Homo sapiens, UniProt P29597)', 'IC50', '< 30 nM');

Hello, please tell me recorded IC50 for this one: "CNC(=O)c1nnc(Nc2ccc(F)cn2)cc1Nc1cccc2c1OCc1c-2noc1C"
300 to 1000 nM

Hello, please tell me recorded IC50 for this one: "[2H]C([2H])([2H])NC(=O)c1cnc(NC(=O)C2CC2)cc1Nc1cccc2c1N(C)Cc1nn(C)c(=O)n1-2"
< 30 nM

Hello, please tell me recorded IC50 for this one: "[2H]C([2H])([2H])NC(=O)c1nnc(NC(=O)C2CC2)cc1Nc1nccc2c1N(C)Cc1sc(C)nc1-2"
< 30 nM

Hello, please tell me recorded IC50 for this one: "[2H]C([2H])([2H])NC(=O)c1nnc(NC(=O)C2CC2)cc1Nc1nccc2c1N(C)Cc1nn(C)c(=O)n1-2"
< 30 nM
